Data origin, for the record: patent US20260109707A1

Test system: T-Rex 293 cell line SC3 cells lacking increased expression of androgen receptor protein
ASSAY_REMARKS: Cellular growth inhibition assay, T-Rex 293 SC3 cells without doxycycline (CellTiter-Glo, 72 hours)
Type: cell-based
TEST_CONDITIONS: 72 h, T-Rex 293 cell line SC3 cells not exposed to doxycycline (lacking increased androgen receptor expression)
Answer each item with its documented GI50.

Req: Form field: GI50 recorded for Cc1sc2c(c1C)C(c1ccc(C(=O)N3CCC(Cc4ccc(C(=O)N[C@H]5CC[C@H](Oc6ccc(C#N)c(Cl)c6)CC5)nn4)CC3)cc1)=N[C@H](Cc1ncco1)c1nnc(C)n1-2 with T-Rex 293 cell line SC3 cells lacking increased expression of androgen receptor protein (enter value)
Resp: 500 to 1500 nM

Req: Form field: GI50 recorded for CCNC(=O)C[C@@H]1N=C(c2ccc(N3CC(N(C(C)C)C4CN(c5ccc(C(=O)N[C@H]6CC[C@H](Oc7ccc(C#N)c(Cl)c7)CC6)nn5)C4)C3)cc2)c2c(sc(C)c2C)-n2c(C)nnc21 with T-Rex 293 cell line SC3 cells lacking increased expression of androgen receptor protein (enter value)
Resp: 500 to 1500 nM

Req: Form field: GI50 recorded for Cc1sc2c(c1C)C(c1ccc([C@H]3C[C@@H](C4CC5(CCN(c6ccc(C(=O)N[C@H]7CC[C@H](Oc8ccc(C#N)c(Cl)c8)CC7)nn6)CC5)C4)C3)cc1)=N[C@H](Cc1ncco1)c1nnc(C)n1-2 with T-Rex 293 cell line SC3 cells lacking increased expression of androgen receptor protein (enter value)
Resp: > 3000 nM

Req: Form field: GI50 recorded for CC[C@@H]1N=C(c2ccc(N3CCC4(CC3)CC(Cc3ccc(C(=O)N[C@H]5CC[C@H](Oc6ccc(C#N)c(Cl)c6)CC5)nn3)C4)cc2)c2c(sc(C)c2C)-n2c(C)nnc21 with T-Rex 293 cell line SC3 cells lacking increased expression of androgen receptor protein (enter value)
Resp: > 3000 nM

Req: Form field: GI50 recorded for Cc1sc2c(c1C)C(c1ccc(C#CC3CC4(CCCN(c5ccc(C(=O)NC6CCC(Oc7ccc(C#N)c(Cl)c7)CC6)nn5)C4)C3)cc1)=NCc1nnc(C)n1-2 (centres unmarked) with T-Rex 293 cell line SC3 cells lacking increased expression of androgen receptor protein (enter value)
Resp: > 3000 nM

Req: Form field: GI50 recorded for Cc1sc2c(c1C)C(c1ccc(CN3CCN(C(=O)c4ccc(C(=O)N[C@H]5CC[C@H](Oc6ccc(C#N)c(Cl)c6)CC5)nn4)CC3)cc1)=N[C@@H](Cc1ncco1)c1nnc(C)n1-2 with T-Rex 293 cell line SC3 cells lacking increased expression of androgen receptor protein (enter value)
Resp: < 500 nM

Req: Form field: GI50 recorded for Cc1sc2c(c1C)C(c1ccc(C#CC3CC4(CCN(c5ccc(C(=O)N[C@H]6CC[C@H](Oc7ccc(C#N)c(Cl)c7)CC6)nn5)CC4)C3)cc1)=N[C@@H](Cc1ncco1)c1nnc(C)n1-2 with T-Rex 293 cell line SC3 cells lacking increased expression of androgen receptor protein (enter value)
Resp: < 500 nM

Req: Form field: GI50 recorded for Cc1sc2c(c1C)C(c1ccc(CCCN3[C@@H](C)CN(c4ccc(C(=O)N[C@H]5CC[C@H](Oc6ccc(C#N)c(Cl)c6)CC5)nn4)C[C@@H]3C)cc1)=N[C@@H](Cc1ncco1)c1nnc(C)n1-2 with T-Rex 293 cell line SC3 cells lacking increased expression of androgen receptor protein (enter value)
Resp: < 500 nM

Req: Form field: GI50 recorded for Cc1sc2c(c1C)C(c1ccc(C[C@H]3C[C@@H](C4CCCN(c5ccc(C(=O)N[C@H]6CC[C@H](Oc7ccc(C#N)c(Cl)c7)CC6)nn5)C4)C3)cc1)=N[C@@H](Cc1ncco1)c1nnc(C)n1-2 (some centres unmarked) with T-Rex 293 cell line SC3 cells lacking increased expression of androgen receptor protein (enter value)
Resp: > 3000 nM

Req: Form field: GI50 recorded for Cc1sc2c(c1C)C(c1ccc(N3CCC4(CC3)CCN(c3ccc(C(=O)N[C@H]5CC[C@H](Oc6ccc(C#N)c(Cl)c6)CC5)nn3)C4)cc1)=NCc1nnc(C)n1-2 with T-Rex 293 cell line SC3 cells lacking increased expression of androgen receptor protein (enter value)
Resp: 500 to 1500 nM

Req: Form field: GI50 recorded for Cc1sc2c(c1C)C(c1ccc(N3C[C@@H]4CN(c5ccc(C(=O)N[C@H]6CC[C@H](Oc7ccc(C#N)c(Cl)c7)CC6)nn5)C[C@H]4C3)cc1)=NC1(CC1)c1nnc(C)n1-2 with T-Rex 293 cell line SC3 cells lacking increased expression of androgen receptor protein (enter value)
Resp: < 500 nM

Req: Form field: GI50 recorded for Cc1sc2c(c1C)C(c1ccc(C#CC3CC4(C3)CN(c3ccc(C(=O)N[C@H]5CC[C@H](Oc6ccc(C#N)c(Cl)c6)CC5)nn3)C4)cc1)=N[C@@H](C)c1nnc(C)n1-2 with T-Rex 293 cell line SC3 cells lacking increased expression of androgen receptor protein (enter value)
Resp: < 500 nM

Req: Form field: GI50 recorded for Cc1sc2c(c1C)C(c1ccc(N3CCOC4(CCN(c5ncc(C(=O)N[C@H]6CC[C@H](Oc7ccc(C#N)c(Cl)c7)CC6)cn5)CC4)C3)cc1)=NC(Cc1ncco1)c1nnc(C)n1-2 (some centres unmarked) with T-Rex 293 cell line SC3 cells lacking increased expression of androgen receptor protein (enter value)
Resp: > 3000 nM

Req: Form field: GI50 recorded for Cc1sc2c(c1C)C(c1ccc(CCNC(=O)NCc3ccc(C(=O)N[C@H]4CC[C@H](Oc5ccc(C#N)c(Cl)c5)CC4)nn3)cc1)=N[C@@H](Cc1ncco1)c1nnc(C)n1-2 with T-Rex 293 cell line SC3 cells lacking increased expression of androgen receptor protein (enter value)
Resp: > 3000 nM

Req: Form field: GI50 recorded for Cc1sc2c(c1C)C(c1ccc(OC3CN(C4CCN(c5ccc(C(=O)N[C@H]6CC[C@H](Oc7ccc(C#N)c(Cl)c7)CC6)nn5)C4)C3)cc1)=N[C@@H](Cc1ncco1)c1nnc(C)n1-2 (some centres unmarked) with T-Rex 293 cell line SC3 cells lacking increased expression of androgen receptor protein (enter value)
Resp: < 500 nM

Req: Form field: GI50 recorded for Cc1sc2c(c1C)C(c1ccc(CN(C)C(=O)[C@@H]3CC[C@@H](c4ccc(C(=O)N[C@H]5CC[C@H](Oc6ccc(C#N)c(Cl)c6)CC5)nn4)C3)cc1)=N[C@@H](Cc1ncco1)c1nnc(C)n1-2 with T-Rex 293 cell line SC3 cells lacking increased expression of androgen receptor protein (enter value)
Resp: > 3000 nM

Req: Form field: GI50 recorded for Cc1sc2c(c1C)C(c1ccc(C#CC3CC4(CCCN(c5ccc(C(=O)N[C@H]6CC[C@H](Oc7ccc(C#N)c(Cl)c7)CC6)nn5)C4)C3)nc1)=N[C@@H](C)c1nnc(C)n1-2 (some centres unmarked) with T-Rex 293 cell line SC3 cells lacking increased expression of androgen receptor protein (enter value)
Resp: < 500 nM

Req: Form field: GI50 recorded for C#Cc1ccc(O[C@H]2CC[C@H](NC(=O)c3ccc(N4CCC(C5CN(c6ccc(C7=NC8(CC8)c8nnc(C)n8-c8sc(C)c(C)c87)nc6)C5)CC4)nn3)CC2)cc1Cl with T-Rex 293 cell line SC3 cells lacking increased expression of androgen receptor protein (enter value)
Resp: > 3000 nM

Req: Form field: GI50 recorded for COC[C@@H]1N=C(c2ccc(C3CCC4(CC3)CCN(c3ccc(C(=O)N[C@H]5CC[C@H](Oc6ccc(C#N)c(Cl)c6)CC5)nn3)C4)cc2)c2c(sc(C)c2C)-n2c(C)nnc21 (some centres unmarked) with T-Rex 293 cell line SC3 cells lacking increased expression of androgen receptor protein (enter value)
Resp: < 500 nM

Req: Form field: GI50 recorded for CCNC(=O)C[C@@H]1N=C(c2ccc(OC3CN(CC4CCN(c5ccc(C(=O)N[C@H]6CC[C@H](Oc7ccc(C#N)c(Cl)c7)CC6)nn5)CC4)C3)cc2)c2c(sc(C)c2C)-n2c(C)nnc21 with T-Rex 293 cell line SC3 cells lacking increased expression of androgen receptor protein (enter value)
Resp: 500 to 1500 nM
